meta.source: ChEMBL document CHEMBL1146479

- Tested on: MCF7
- ASSAY_OVERVIEW: Anticancer activity against human MCF7 cells after 48 hrs by SRB assay
- Type: functional
- COND: MCF7, 48 h, read-out: ED50 (the source's name)
PARAMETER: EC50 (µg/mL)
I only need the number, in µg/mL, no unit after it.

Query: GET /values?readout=EC50&system=MCF7&item= COc1cc([C@@H]2c3cc4c(cc3C[C@H]3COC(=O)[C@H]32)OCO4)cc(OC)c1OC [DEOXYPICROPODOPHYLLIN]
Result: 0.026

Query: GET /values?readout=EC50&system=MCF7&item= `COc1ccc([C@H]2OC[C@H]3[C@@H]2CO[C@H]3c2ccc(OC)c(OC)c2)cc1OC`
Result: 3.5

Query: GET /values?readout=EC50&system=MCF7&item= COc1cc([C@@H](O)[C@H]2C(=O)OC[C@@H]2Cc2ccc3c(c2)OCO3)cc(OC)c1OC [PODORHIZOL]
Result: 6.6

Query: GET /values?readout=EC50&system=MCF7&item= COc1cc([C@@H]2c3cc4c(cc3C[C@H]3COC(=O)[C@@H]32)OCO4)cc(OC)c1OC [DESOXYPODOPHYLLOTOXIN]
Result: 0.0021

Query: GET /values?readout=EC50&system=MCF7&item= COc1cc2c(c(OC)c1OC)-c1cc3c(cc1C[C@H]1COC(=O)[C@@H]1C2)OCO3 [STEGANE]
Result: 4.3

###

- System: P388
- ASSAY_OVERVIEW: Anticancer activity against mouse P388 cells after 48 hrs
- Format: functional
- COND: P388, 48 h, read-out: ED50 (the source's name)
What log10 of EC50 was measured for each of the following?
Form field - Quantity: EC50; Unit: µg/mL; Scale: log10

Query: Suppose we examine the molecule `COc1cc([C@@H]2c3cc4c(cc3C[C@H]3COC(=O)[C@H]32)OCO4)cc(OC)c1OC` ; what log10 of EC50 value has been reported?
Result: -1.52

Query: Suppose we examine the molecule `COc1ccc([C@H]2OC[C@H]3[C@@H]2CO[C@H]3c2ccc(OC)c(OC)c2)cc1OC` ; what log10 of EC50 value has been reported?
Result: 0.23

Query: Suppose we examine the molecule `COc1cc2c(c(OC)c1OC)-c1cc3c(cc1C[C@H]1COC(=O)[C@@H]1C2)OCO3` ; what log10 of EC50 value has been reported?
Result: 0.79

Query: Suppose we examine the molecule `COc1cc([C@@H]2c3cc4c(cc3C[C@H]3COC(=O)[C@@H]32)OCO4)cc(OC)c1OC` ; what log10 of EC50 value has been reported?
Result: -2.64

Query: Suppose we examine the molecule `COc1cc([C@@H]2OC[C@H]3[C@@H]2CO[C@@H]3c2ccc3c(c2)OCO3)cc(OC)c1OC` ; what log10 of EC50 value has been reported?
Result: 0.18
